- Target entity: TMEM156
- Measurement protocol: pooled miR-30 sensor sort-seq; sequence = guide strand; also: reference of the scale not given here
- Assay conditions: shRNA
# cutoff -0.1 applies to sensor-assay potency score (higher = more potent); >= gives condition met, < gives condition not met

TAGTTTATCGATTTCTCCTTGC
condition not met
TACACTGAAGTTAAAGTGCTGA
condition met

# ---- query sequence ----
Asked: Evaluate `TTTATCGATTTCTCCTTGCTTG` : sensor-assay potency score (higher = more potent) at minimum -0.1?
Given back: condition met

====

- Target entity: ZNF263
- Measurement protocol: pooled miR-30 sensor sort-seq; sequence = guide strand
- Assay conditions: shRNA
Decide by sensor-assay potency score (higher = more potent): equal to or exceeding -0.8 means Condition met, less means Condition not met.

TAAGGTAAACTGGACAGTCAGG
Condition not met
TTTTATGCCAATCCTCTGCTGC
Condition met
TACACAGTCTTTCAGCTGCATG
Condition not met
TTTGGCTGCAGTTCCTTCGGTC
Condition met

Asked: # bool: sensor-assay potency score (higher = more potent) of `TTATAGGGTCTCTCTCCCGTAT` >= -0.8
Given back: Condition not met

Asked: Record `TTCAGTGCAGTCCACACCCATA` ; criterion: sensor-assay potency score (higher = more potent) no lower than -0.8. Met?
Given back: Condition not met

Asked: Evaluate `TTATCAGACACCTACTTCCTCT` : sensor-assay potency score (higher = more potent) at minimum -0.8?
Given back: Condition met

Asked: Exam item: decide whether the reported sensor-assay potency score (higher = more potent) for `TGAAGCTCGGTGACTCTCGTGC` is at least -0.8.
Given back: Condition met

====

Recorded sensor-assay potency score (higher = more potent) by entry
- Target entity: CDC42BPB
- Measurement protocol: pooled miR-30 sensor sort-seq; sequence = guide strand
- Assay conditions: shRNA
Output spec: single numeric token, no unit.

Example sequences with recorded sensor-assay potency score (higher = more potent):
TTGAAGTAGATCAAGCGTGGAG
0.0489
TTTAATGTCTCTGTGCACGTAA
0.422

Shifting focus to the sequence that follows.
Asked: Give recorded sensor-assay potency score (higher = more potent) with CDC42BPB for the following sequence: `TTTCCTTGGACAACACTGGAGG`
Given back: -0.765

====

- Target entity: CD86
- Measurement protocol: pooled miR-30 sensor sort-seq; sequence = guide strand
- Assay conditions: shRNA
So basically: sensor-assay potency score (higher = more potent) at -0.4 or higher? That is yes. Lower than -0.4? That is no.

Solved entries:
AAGATGGTCATATTGCTCGTAA
no
TTCTGTGACATTATCTTGAGAT
yes
TATACTTGGAATGAACACTGTC
yes
TAACCGTGTATAGATGAGCAGG
no

Asked: Quick check: does `TCATATTGCTCGTAACATCAGG` have sensor-assay potency score (higher = more potent) greater than or equal to -0.4?
Given back: no

Asked: Check the entry `TAGCAAGCACTGACAGTTCAGA` : does sensor-assay potency score (higher = more potent) equal or exceed -0.4?
Given back: no

Asked: Is sensor-assay potency score (higher = more potent) at least -0.4? Consider `TAAGCTTGAATCTTCAGAGGAG`
Given back: yes

====

- Target entity: DUSP5
- Measurement protocol: pooled miR-30 sensor sort-seq; sequence = guide strand
- Assay conditions: shRNA
Parameter sensor-assay potency score (higher = more potent): see the listing below.
The answer should be a number; do not append a unit.

// below: answered sequences
TTCTGCTGAGCTCTGAGACTGT
-0.115
TTCCCTGACACAGTCAATGAAG
-1.14

Asked: Given `TTACATCCACGCAACACTCAGG` , state its recorded sensor-assay potency score (higher = more potent).
Given back: -0.32

Asked: So what does the record say about sensor-assay potency score (higher = more potent) for `TACAGTAGTCAGCACATGCTGT` ?
Given back: -0.0745

Asked: Record request: sensor-assay potency score (higher = more potent) value, item `TGTAGCTGACATTTACCACTGG`
Given back: 0.536

====

- Target entity: PPIA
- Measurement protocol: pooled miR-30 sensor sort-seq; sequence = guide strand
- Assay conditions: shRNA
Measurement label: sensor-assay potency score (higher = more potent)
Please state the value as a number alone, without comment.

The examples below pair each entry with its known result.
TAAACTTAACTCTGCAATCCAG
-0.459
TTAGGATGAAGTTCTCATCTTC
0.589
TAACCAAATCCTTTCTCTCCAG
-0.631
TTGCTGGTCTTGCCATTCCTGG
-1.6

# evaluate next
Asked: Reported sensor-assay potency score (higher = more potent), sequence `TTTCACTTTGCCAAACACCACA` : ____
Given back: -0.879

====

- Target entity: LRRC19
- Measurement protocol: pooled miR-30 sensor sort-seq; sequence = guide strand
- Assay conditions: shRNA
Measurement label: sensor-assay potency score (higher = more potent)
Lab note: jot down the number only; don't add units.

Here's what some known entries look like.
TAAACTGTAGTGATCCTGCATT
-0.636
TATGTCTGTAGAACTCTTGTGT
0.236
TATGTAACTGTCAACTACCGAG
-0.747
TTATGTAAGATAGTAACCTTGT
0.182

Asked: Would you kindly share the measured sensor-assay potency score (higher = more potent) for `TAACTGTCAACTACCGAGGAGT` ?
Given back: -0.999

====

- Target entity: WFIKKN1
- Measurement protocol: pooled miR-30 sensor sort-seq; sequence = guide strand
- Assay conditions: shRNA
Below: a set of entries, each annotated with reported sensor-assay potency score (higher = more potent).
Lab note: jot down the number only; don't add units.

Look over these answered cases.
TCATCCTTGAGCACGTCCTCGA
-0.412
TCTCTCGCTGGTGACTCTGCTT
-0.761
TTGTAGAGCACCAGCTGCCCGA
-1.47

Asked: Entry under review: `TCGGCGTCCATATAGCAGCGGT` . Reported sensor-assay potency score (higher = more potent)?
Given back: -1.4

Asked: // lookup sensor-assay potency score (higher = more potent) for `TTCTTGACGCGCTTCTCGCTGG`
Given back: -0.797

====

- Target entity: ZHX1
- Measurement protocol: pooled miR-30 sensor sort-seq; sequence = guide strand
- Assay conditions: shRNA
Cut-off -0.7 on sensor-assay potency score (higher = more potent), inclusive. At or above means met; below means not met.

Answered cases to consult:
TAACTATGTCTGTTCTAGCAAG
not met
TAGACATACAGTATTAAACTGG
met
TTATGATGAACTGCAATCCGTT
not met
TTCTTCTTCTCTGTAAACCAAG
not met
TTTTTTTACATATCTTGCCTGT
met
TTAAACTGAACATTTCTTCTAC
met

Proceed to the following item.
Asked: Would you say `TAAATTAGTATGAACTTTCAGT` shows sensor-assay potency score (higher = more potent) at minimum -0.7?
Given back: met

====

- Target entity: ZBTB5
- Measurement protocol: pooled miR-30 sensor sort-seq; sequence = guide strand
- Assay conditions: shRNA
Reported sensor-assay potency score (higher = more potent) values follow for various sequences
Lab note: record just the number, no unit beside it.

TACTTGATTACTTCTATGCTAT
0.0849

Asked: Field: sensor-assay potency score (higher = more potent) (ZBTB5). Entry: `ATCAAAACTAGTCTCAACCTGA`
Given back: 0.322

====

- Target entity: KIAA2018
- Measurement protocol: pooled miR-30 sensor sort-seq; sequence = guide strand
- Assay conditions: shRNA
Measurement label: sensor-assay potency score (higher = more potent)
// return just the number, without any unit appended

Before answering, review these 4 worked examples.
TTGCTGGTCACATCTTCTCTTG
-1.17
TATCTGATGAATCTTGCTCAAC
-1.15
TTGACTAATTCGAAAAGCCTGG
-0.327
TTTCTGTACAGAAACATTGGGG
-0.202

Consider the record given below.
Asked: Give sensor-assay potency score (higher = more potent) (KIAA2018) of the following sequence: `TAGATTTCGATACAGACTCAGG`
Given back: -1.04

====

# maps each entry to its sensor-assay potency score (higher = more potent)
- Target entity: CSGALNACT1
- Measurement protocol: pooled miR-30 sensor sort-seq; sequence = guide strand
- Assay conditions: shRNA
Give the figure only, with no unit attached.

TAATTCAGTTACTTCCACCTGG
0.629

Asked: Name the recorded sensor-assay potency score (higher = more potent) for `TTAGCTGTGCAATACCACCTTC` .
Given back: -0.0505

Asked: Consider the sequence `TATTAGTACAAACCATTCCTTC` and give its measured sensor-assay potency score (higher = more potent).
Given back: -0.885

Asked: Field request: sensor-assay potency score (higher = more potent) | item: `TTGCTGTGGAGATACTTGCGAT`
Given back: -1.14

Asked: Consider the sequence shown here: `TATCTCGTGCCTGAACACCAGC` What is its recorded sensor-assay potency score (higher = more potent)?
Given back: -0.848

Asked: # get_value(readout='sensor-assay potency score (higher = more potent)', item= `TTGGACTGCATGCACATCTTGT` )
Given back: -0.464

Asked: I have this sequence here, `TTAAATTTCATAAACTACCAGT` , and I need its recorded sensor-assay potency score (higher = more potent).
Given back: -0.16
